Target: MMP-14 (Homo sapiens, UniProt P50281)
Experiment: Selection and phage ELISA screening of anti-MMP-14 Fabs
Assay type: binding
Details: Fab from FAB310 phage display library

>  <Molecule>
M0039-D10: Fab that binds human MMP-14; DNA LV SEQ ID NO: 72, HV SEQ ID NO: 73 (antibody, V domains shown, Synthetically generated oligonucleotide) VL: QDIQMTQSPDTVSFSPGERASLSCRASQSVRSDLAWYQQKPGQAPRLLIYGASNRATGIPVRFSGSGSGTDFTLTISRLEPEDFAVYYCQQYGSSPLFTFGPGTKVDIK VH: EVQLLESGGGLVQPGGSLRLSCAASGFTFSMYNMAWVRQAPGKGLEWVSWIYSSGGLTLYADSVKGRFTISRDNSKNTLYLQMNSLRAEDTAVYYCAKGSNTYYFDASGLGAFNMWGQGTMVTVSS

>  <bind to human MMP-14>
bind to human MMP-14

$$$$
>  <Molecule>
M0037-D01: human antibody (Fab, IgG) that binds and inhibits MMP-14; HC SEQ ID NO: 152, LC SEQ ID NO: 153 (antibody, V domains shown, Synthetically generated peptide) VH: EVQLLESGGGLVQPGGSLRLSCAASGFTFSMYMMIWVRQAPGKGLEWVSSIYPSGGNTMYADSVKGRFTISRDNSKNTLYLQMNSLRAEDTAVYYCATGVLRYFDWDAGSGMDVWGQGTTVTVSSLC VL: QDIQMTQSPSSLSASVGDRVTITCRASQGIRNDLGWYQQKPGKAPKRLIYVASSLQSGVPSRFSGSGSGTEFTLTISSLQPEDFATYYCLQHNSYPWTFGQGTKVEIK

>  <bind to human MMP-14>
bind to human MMP-14

$$$$
